The origin of these recorded values is patent US20250066503A1.

- measurement_target: T1, soluble human CD3 epsilon chain (human, UniProt P07766 23-126)
- T1 construct: also called CD3ε
- T1 sequence (P07766 23-126 limits assumed): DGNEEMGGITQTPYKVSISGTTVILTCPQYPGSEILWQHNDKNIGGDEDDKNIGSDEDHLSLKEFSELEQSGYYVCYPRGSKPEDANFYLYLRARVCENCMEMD
- measurement_description: SPR
Parameter: Kd. Scope: all listed entries.
readout_name: Kd (nM)

binder: TR01H084-E2702GsKsc/none-Hi-E2704sE/L0011-k0 (antibody, human IgG4 S228P, kappa, N297A, V domains shown, one-arm) VH: QVQLVESGGGVVQPGGSLRLSCAASGFTFSNAWMHWVRQAPGKGLEWVAQIKDKSQNYATYYAESVKGRFTISRADSKNSIYLQMNSLKTEDTAVYYCRYVHYAAGYGVDIWGQGTTVTVSS VL: DIVMTQSPLSLPVTPGEPASISCRSSQPLVHSNRNTYLHWYQQKPGQAPRLLIYKVSNRFSGVPDRFSGSGSGTDFTLKISRVEAEDVGVYYCGQGTQVPYTFGQGTKLEIKR
readout_name: Kd
meas_value: 4.14
//
binder: TR01H109-E2702GsKsc/none-Hi-E2704sE/L0011-k0 (antibody, human IgG4 S228P, kappa, N297A, V domains shown, one-arm) VH: QVQLVESGGGLVQPGRSLRLSCAASGFTFSNAWMHWVRQAPGKGLEWVAQIKDKSQNYATYVAESVKGRFTISRDDSKNSLYLQMNSLKTEDTAVYYCRYVHYAAGYGVDAWGQGTTVTVSS VL: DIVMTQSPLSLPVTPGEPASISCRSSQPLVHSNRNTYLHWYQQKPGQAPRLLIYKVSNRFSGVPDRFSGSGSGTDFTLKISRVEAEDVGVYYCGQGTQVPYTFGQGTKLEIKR
readout_name: Kd
meas_value: 16.4
//
binder: TR01H040-E22Hh/none-Hi-Kn010G3/TR01L010-k0 (antibody, V domains shown, one-arm) VH: QVQLVESGGGLVQPGRSLRLSCAASGFTFSNAWMHWVRQAPGKGLEWVAQIKDKSQNYATYYAESVKGRFTISRADSKNSIYLQMNSLKTEDTAVYYCRYVHYSASYGVDAWGQGTTVTVSS VL: DIVMTQSPLSLPVTPGEPASISCRSSQSLVHSNRNTYLHWYQQKPGQAPRLLIYKVSNRFRGVPDRFSGSGSGTDFTLKISRVEAEDVGVYYCGQGTQVPYTFGQGTKVEIE
readout_name: Kd
meas_value: 32.8
//
binder: TR01H040-E22Hh/none-Hi-Kn010G3/TR01L012-k0 (antibody, V domains shown, one-arm) VH: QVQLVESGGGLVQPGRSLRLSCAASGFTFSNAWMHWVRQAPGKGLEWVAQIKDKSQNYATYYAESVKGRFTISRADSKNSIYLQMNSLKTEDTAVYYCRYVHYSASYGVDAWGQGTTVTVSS VL: DIVMTQSPLSLPVTPGEPASISCRSSQSLVHSNRNTYLHWYLQKPGQSPQLLIYKVSNRFRGVPDRFSGSGSGTDFTLKISRVEAEDVGVYYCGQGTQVPYTFGQGTKVEIE
readout_name: Kd
meas_value: 42.2
//
binder: TR01H014-E22Hh/none-Hi-Kn010G3/L0000-k0 (antibody, V domains shown, one-arm) VH: QVQLVESGGGLVQPGRSLRLSCAASGFTFSNAWMHWVRQAPGKGLEWVAQIKGKSNNYATYYAPSVKGRFTISRADSKNSIYLQMNSLKTEDTAVYYCRYVHYGAYYGVDIWGQGTTVTVSS VL: DIVMTQSPLSLPVTPGEPASISCRSSQSLVHSNRNTYLHWYQQKPGQAPRLLIYKVSNRFSGVPDRFSGSGSGTDFTLKISRVEAEDVGVYYCGQGTQVPYTFGQGTKLEIKR
readout_name: Kd
meas_value: 38.7
//
binder: rCE115H-E22Hh/none-Hi-Kn010G3/L0000vk1-k0 (antibody, human IgG1, L234A L235A, N297A, V domains shown, one-arm) VH: EVQLVETGGSLVQPGKSLKLTCATSGFTFSNAWMHWVRQSPEKQLEWVAQIKAKSNNYATYYAESVKGRFTISRDDSKSNIYLQMNSLKEEDTAVYYCRYVHYGAYYGVDAWGQGTSVTVSS VL: DIQMTQSPSSLSASVGDRVTITCRSSQSLVHSNRNTYLHWYQQKPGKAPKLLIYKVSNRFSGVPSRFSGSGSGTDFTFTISSLQPEDIATYYCGQGTQVPYTFGQGTKVEIK
readout_name: Kd
meas_value: 85.2
//
binder: TR01H084-E22Hh/none-Hi-Kn010G3/L0270-k0 (antibody, V domains shown, one-arm) VH: QVQLVESGGGVVQPGGSLRLSCAASGFTFSNAWMHWVRQAPGKGLEWVAQIKDKSQNYATYYAESVKGRFTISRADSKNSIYLQMNSLKTEDTAVYYCRYVHYAAGYGVDIWGQGTTVTVSS VL: DIVMTQSPLSLPVTPGEPASISCRSSQSLVHSNRQTYLHWYQQKPGQAPRLLIYKVSNRFSGVPDRFSGSGSGTDFTLKISRVEAEDVGVYYCGQGTQVPYTFGQGTKLEIK
readout_name: Kd
meas_value: 27.6
//
binder: TR01H024-E22Hh/none-Hi-Kn010G3/L0000-k0 (antibody, V domains shown, one-arm) VH: QVQLVESGGGLVQPGGSLRLSCAASGFTFSNAWMHWVRQAPGKGLEWVAQIKGKSQNYATYYAESVKGRFTISRADSKNSIYLQMNSLKTEDTAVYYCRYVHYSASYGVDAWGQGTTVTVSS VL: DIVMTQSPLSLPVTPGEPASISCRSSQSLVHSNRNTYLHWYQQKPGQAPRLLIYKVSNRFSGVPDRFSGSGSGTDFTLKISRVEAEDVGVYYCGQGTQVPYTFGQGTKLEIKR
readout_name: Kd
meas_value: 108
//
binder: TR01H040-E22Hh/none-Hi-Kn010G3/L0208-k0 (antibody, V domains shown, one-arm) VH: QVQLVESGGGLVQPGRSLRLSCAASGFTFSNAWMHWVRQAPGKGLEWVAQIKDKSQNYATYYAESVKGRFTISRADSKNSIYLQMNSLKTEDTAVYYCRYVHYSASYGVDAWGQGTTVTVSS VL: DIVMTQSPLSLPVTPGEPASISCRSSQSPVHSNRNTYLHWYQQKPGQAPRLLIYKVSNRFWGVPDRFSGSGSGTDFTLKISRVEAEDVGVYYCYQGTQVPYTFGQGTKLEIKR
readout_name: Kd
meas_value: 4.16
//
binder: TR01H030-E22Hh/none-Hi-Kn010G3/L0000-k0 (antibody, one-arm) VH: QVQLVESGGGVVQPGRSLRLSCAASGFTFSNAWMHWVRQAPGKGLEWVAQIKGKSNNYATYYAESVKGRFTISRADSKNSIYLQMNSLKTEDTAVYYCRYVHYSASYGVDIWGQGTTVTVSS light: DIVMTQSPLSLPVTPGEPASISCRSSQSLVHSNRNTYLHWYQQKPGQAPRLLIYKVSNRFSGVPDRFSGSGSGTDFTLKISRVEAEDVGVYYCGQGTQVPYTFGQGTKLEIKRTVAAPSVFIFPPSDEQLKSGTASVVCLLNNFYPREAKVQWKVDNALQSGNSQESVTEQDSKDSTYSLSSTLTLSKADYEKHKVYACEVTHQGLSSPVTKSFNRGEC
readout_name: Kd
meas_value: 65.4
